# measured-target: GST-Co-NF-kB (Capsaspora owczarzaki, UniProt F1ARL5 200-546)
# Sequence: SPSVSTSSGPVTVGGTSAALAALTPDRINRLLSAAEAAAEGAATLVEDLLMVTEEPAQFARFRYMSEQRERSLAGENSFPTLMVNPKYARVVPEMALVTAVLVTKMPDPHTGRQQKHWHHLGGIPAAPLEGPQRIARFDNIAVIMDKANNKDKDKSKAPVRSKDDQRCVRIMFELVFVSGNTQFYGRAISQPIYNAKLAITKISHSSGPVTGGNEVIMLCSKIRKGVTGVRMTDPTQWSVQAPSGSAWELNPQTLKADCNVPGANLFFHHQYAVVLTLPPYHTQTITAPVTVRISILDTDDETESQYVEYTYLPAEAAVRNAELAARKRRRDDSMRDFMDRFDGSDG
# assay-procedure: protein-binding microarray (PBM); PBM: ~300 nM protein, 6 mM HEPES pH 7.8, 80 mM KCl, 0.5 mM EDTA, 0.5 mM EGTA, 6% glycerol, 35 ng/ul poly-dIdC, 1% milk, 1 h, room temperature; high values mean tight binding
# measurement-context: dsDNA, one strand shown
Label key: y means binding signal under 5 z-score; n means binding signal of 5 z-score or more.

// query Problem: For the sequence CCGATTAACATCACCCCTCCCCCTGATGTTAATCGGGTCTTGATTCGCTTGACGCTGCTG , is binding signal under 5 z-score?
// result y

// query Hi there! Is binding signal for CCGATTAACATCACGGGGATTTCTGATGTTAATCGGGTCTTGATTCGCTTGACGCTGCTG below 5 z-score, do you know?
// result n

// query State whether 5 z-score exceeds binding signal recorded for CCGATTAACATCACGTATTTCCCTGATGTTAATCGGGTCTTGATTCGCTTGACGCTGCTG .
// result y

// query Dear reviewer, please state whether CCGATTAACATCACCCCCCCCCATGATGTTAATCGGGTCTTGATTCGCTTGACGCTGCTG has binding signal strictly beneath 5 z-score.
// result n

// query Just wondering, is binding signal of CCGATTAACATCAAAAATACCCCTGATGTTAATCGGGTCTTGATTCGCTTGACGCTGCTG below 5 z-score?
// result n

----------
# measured-target: GST-Ap-NF-kB RHD (Exaiptasia pallida (Aiptasia), UniProt A0A913YAJ5 2-422)
# Sequence: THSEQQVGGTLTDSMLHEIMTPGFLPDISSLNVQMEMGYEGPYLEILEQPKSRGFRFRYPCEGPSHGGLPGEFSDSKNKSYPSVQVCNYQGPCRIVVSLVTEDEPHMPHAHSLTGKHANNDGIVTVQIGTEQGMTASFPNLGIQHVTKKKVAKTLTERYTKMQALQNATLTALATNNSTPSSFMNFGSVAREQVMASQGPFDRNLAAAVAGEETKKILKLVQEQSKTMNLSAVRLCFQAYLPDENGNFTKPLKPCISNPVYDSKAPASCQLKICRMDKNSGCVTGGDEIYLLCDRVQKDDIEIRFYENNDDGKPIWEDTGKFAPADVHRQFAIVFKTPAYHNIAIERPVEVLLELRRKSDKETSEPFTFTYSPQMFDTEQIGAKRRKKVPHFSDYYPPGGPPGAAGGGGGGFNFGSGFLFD
# assay-procedure: protein-binding microarray (PBM); PBM: ~300 nM protein, 6 mM HEPES pH 7.8, 80 mM KCl, 0.5 mM EDTA, 0.5 mM EGTA, 6% glycerol, 35 ng/ul poly-dIdC, 1% milk, 1 h, room temperature; Ap Aiptasia and Nv Nematostella (sea anemones) / Co Capsaspora / Aq Amphimedon (sponge) / Dm Drosophila / Hu human; RHD is the Rel homology domain; high values mean tight binding
# measurement-context: dsDNA, one strand shown
# fulfilled = binding signal below 4 z-score (exclusive); not fulfilled = binding signal at/above 4 z-score

Reference set, count: 5
// query For CCGATTAACATCAAATTCCCTTATGATGTTAATCGGGTCTTGATTCGCTTGACGCTGCTG , is the recorded binding signal below the cut-off of 4 z-score?
// result fulfilled

// query Criterion: binding signal strictly below 4 z-score. Is it met by CCGATTAACATCAGGGTGGGAAATGATGTTAATCGGGTCTTGATTCGCTTGACGCTGCTG ?
// result fulfilled

// query Criterion: binding signal strictly below 4 z-score. Is it met by CCGATTAACATCAGGGGAATGTATGATGTTAATCGGGTCTTGATTCGCTTGACGCTGCTG ?
// result not fulfilled

// query Does the reported binding signal of CCGATTAACATCAAAATTCCCGCTGATGTTAATCGGGTCTTGATTCGCTTGACGCTGCTG stay below 4 z-score?
// result not fulfilled

// query Does the reported binding signal of the following sequence sit strictly below 4 z-score? CCGATTAACATCAGGAAAAACCCTGATGTTAATCGGGTCTTGATTCGCTTGACGCTGCTG
// result not fulfilled

***
// query Confirm or reject: binding signal of CCGATTAACATCAGGGGGTGTAATGATGTTAATCGGGTCTTGATTCGCTTGACGCTGCTG lies strictly below 4 z-score
// result fulfilled

// query Is binding signal strictly under 4 z-score for the entry CCGATTAACATCAGGGGGAAAGATGATGTTAATCGGGTCTTGATTCGCTTGACGCTGCTG ?
// result not fulfilled

// query Does the reported binding signal of the following sequence sit strictly below 4 z-score? CCGATTAACATCAAGGGGGAGAATGATGTTAATCGGGTCTTGATTCGCTTGACGCTGCTG
// result not fulfilled

// query binding signal strictly < 4 z-score for this sequence? CCGATTAACATCAGGGGATCTACTGATGTTAATCGGGTCTTGATTCGCTTGACGCTGCTG
// result not fulfilled
